Each recorded value in this set is attributed to the supplement of paper PMC9112550.

- Tested on: Escherichia coli TOP10
- procedure-text: shrunken log2 fold change of peptide-encoding DNA abundance (4.5 h post-induction vs induction); higher = less antimicrobial activity (less host growth inhibition)
- details: time post-induction: 4.5 h; library: site-saturation at positions 5, 18, 19, 20
Decide using shrunken log2 fold change: a value greater than or equal to -0.2 is Condition met, a smaller one is Condition not met.

Below are worked cases with known answers.
>  <entry-sequence>
RRIRYRPPRLPRPRPRPNHNPRP

>  <experimental-system>
Escherichia coli TOP10

>  <qualitative-label>
Condition not met

$$$$
>  <entry-sequence>
RRIRWRPPRLPRPRPRPVFVPRP

>  <experimental-system>
Escherichia coli TOP10

>  <qualitative-label>
Condition met

$$$$

Data request: Has "RRIRMRPPRLPRPRPRPFDTPRP" a recorded shrunken log2 fold change greater than or equal to -0.2?
Data returned: Condition met

Data request: Has "RRIRFRPPRLPRPRPRPMYEPRP" a recorded shrunken log2 fold change greater than or equal to -0.2?
Data returned: Condition not met

Data request: Has "RRIRKRPPRLPRPRPRPSMYPRP" a recorded shrunken log2 fold change greater than or equal to -0.2?
Data returned: Condition not met

Data request: Has "RRIRIRPPRLPRPRPRPQPFPRP" a recorded shrunken log2 fold change greater than or equal to -0.2?
Data returned: Condition not met

Data request: Has "RRIRERPPRLPRPRPRPRNGPRP" a recorded shrunken log2 fold change greater than or equal to -0.2?
Data returned: Condition met

Data request: Has "RRIRKRPPRLPRPRPRPMCHPRP" a recorded shrunken log2 fold change greater than or equal to -0.2?
Data returned: Condition met

Data request: Has "RRIRGRPPRLPRPRPRPIKMPRP" a recorded shrunken log2 fold change greater than or equal to -0.2?
Data returned: Condition met

Data request: Has "RRIRERPPRLPRPRPRPHWMPRP" a recorded shrunken log2 fold change greater than or equal to -0.2?
Data returned: Condition met

Data request: Has "RRIRSRPPRLPRPRPRPFRAPRP" a recorded shrunken log2 fold change greater than or equal to -0.2?
Data returned: Condition met

Data request: Has "RRIRTRPPRLPRPRPRPDNMPRP" a recorded shrunken log2 fold change greater than or equal to -0.2?
Data returned: Condition not met

Data request: Has "RRIRSRPPRLPRPRPRPTASPRP" a recorded shrunken log2 fold change greater than or equal to -0.2?
Data returned: Condition met

Data request: Has "RRIRVRPPRLPRPRPRPEMGPRP" a recorded shrunken log2 fold change greater than or equal to -0.2?
Data returned: Condition met

Data request: Has "RRIRWRPPRLPRPRPRPMVCPRP" a recorded shrunken log2 fold change greater than or equal to -0.2?
Data returned: Condition met

---

- Test system: Escherichia coli TOP10
- procedure-text: shrunken log2 fold change of peptide-encoding DNA abundance (4.5 h post-induction vs induction); higher = less antimicrobial activity (less host growth inhibition)
- details: time post-induction: 4.5 h; library: site-saturation at positions 5, 18, 19, 20
Recorded shrunken log2 fold change, one value per entry.
Returns: the value as a bare number; no unit string appended.

Guide cases for shrunken log2 fold change, answers given:
>  <entry-sequence>
RRIRGRPPRLPRPRPRPCFEPRP

>  <experimental-system>
Escherichia coli TOP10

>  <readout-type>
shrunken log2 fold change

>  <meas-value>
0.629

$$$$
>  <entry-sequence>
RRIRNRPPRLPRPRPRPTFMPRP

>  <experimental-system>
Escherichia coli TOP10

>  <readout-type>
shrunken log2 fold change

>  <meas-value>
-0.401

$$$$
>  <entry-sequence>
RRIRPRPPRLPRPRPRPFQQPRP

>  <experimental-system>
Escherichia coli TOP10

>  <readout-type>
shrunken log2 fold change

>  <meas-value>
-0.000989

$$$$
>  <entry-sequence>
RRIRPRPPRLPRPRPRPGLLPRP

>  <experimental-system>
Escherichia coli TOP10

>  <readout-type>
shrunken log2 fold change

>  <meas-value>
0.217

$$$$
>  <entry-sequence>
RRIRSRPPRLPRPRPRPLWHPRP

>  <experimental-system>
Escherichia coli TOP10

>  <readout-type>
shrunken log2 fold change

>  <meas-value>
-0.289

$$$$

Reported shrunken log2 fold change for "RRIRGRPPRLPRPRPRPPEHPRP" was 0.853

Reported shrunken log2 fold change for "RRIRMRPPRLPRPRPRPYNMPRP" was -0.348

Reported shrunken log2 fold change for "RRIRYRPPRLPRPRPRPVPLPRP" was -0.17

---

- System: Escherichia coli TOP10
- procedure-text: shrunken log2 fold change of peptide-encoding DNA abundance (4.5 h post-induction vs induction); higher = less antimicrobial activity (less host growth inhibition)
- details: time post-induction: 4.5 h; library: site-saturation at positions 5, 18, 19, 20
readout-type: shrunken log2 fold change
Returns: the value as a bare number; no unit string appended.

Guide cases for shrunken log2 fold change, answers given:
>  <entry-sequence>
RRIRFRPPRLPRPRPRPWGQPRP

>  <experimental-system>
Escherichia coli TOP10

>  <meas-value>
0.0397

$$$$
>  <entry-sequence>
RRIRKRPPRLPRPRPRPASHPRP

>  <experimental-system>
Escherichia coli TOP10

>  <meas-value>
0.442

$$$$
>  <entry-sequence>
RRIRKRPPRLPRPRPRPNLLPRP

>  <experimental-system>
Escherichia coli TOP10

>  <meas-value>
-0.263

$$$$
>  <entry-sequence>
RRIRCRPPRLPRPRPRPMPTPRP

>  <experimental-system>
Escherichia coli TOP10

>  <meas-value>
0.592

$$$$

Reported shrunken log2 fold change for "RRIRLRPPRLPRPRPRPCLLPRP" was -0.421

Reported shrunken log2 fold change for "RRIRVRPPRLPRPRPRPRNCPRP" was -0.129

Reported shrunken log2 fold change for "RRIRQRPPRLPRPRPRPITLPRP" was -0.418

Reported shrunken log2 fold change for "RRIRCRPPRLPRPRPRPEAQPRP" was 0.704

Reported shrunken log2 fold change for "RRIRKRPPRLPRPRPRPWQKPRP" was 0.121

Reported shrunken log2 fold change for "RRIRDRPPRLPRPRPRPIWRPRP" was 0.235

Reported shrunken log2 fold change for "RRIRNRPPRLPRPRPRPIMPPRP" was -0.225

Reported shrunken log2 fold change for "RRIRSRPPRLPRPRPRPFTTPRP" was -0.392

Reported shrunken log2 fold change for "RRIRFRPPRLPRPRPRPRVNPRP" was -0.116

Reported shrunken log2 fold change for "RRIRDRPPRLPRPRPRPMFDPRP" was 0.894

Reported shrunken log2 fold change for "RRIRLRPPRLPRPRPRPLRTPRP" was 1.18

---

Recorded shrunken log2 fold change, one value per entry.
- Tested on: Escherichia coli TOP10
- procedure-text: shrunken log2 fold change of peptide-encoding DNA abundance (4.5 h post-induction vs induction); higher = less antimicrobial activity (less host growth inhibition)
- details: time post-induction: 4.5 h; library: site-saturation at positions 5, 18, 19, 20
Returns: the value as a bare number; no unit string appended.

>  <entry-sequence>
RRIRTRPPRLPRPRPRPPTEPRP

>  <readout-type>
shrunken log2 fold change

>  <meas-value>
0.498

$$$$
>  <entry-sequence>
RRIRARPPRLPRPRPRPGWHPRP

>  <readout-type>
shrunken log2 fold change

>  <meas-value>
0.378

$$$$
>  <entry-sequence>
RRIRTRPPRLPRPRPRPSSEPRP

>  <readout-type>
shrunken log2 fold change

>  <meas-value>
-0.0162

$$$$
>  <entry-sequence>
RRIRPRPPRLPRPRPRPTNVPRP

>  <readout-type>
shrunken log2 fold change

>  <meas-value>
-0.0325

$$$$
>  <entry-sequence>
RRIRKRPPRLPRPRPRPQTSPRP

>  <readout-type>
shrunken log2 fold change

>  <meas-value>
-0.122

$$$$

Reported shrunken log2 fold change for "RRIRYRPPRLPRPRPRPSFTPRP" was -0.91

Reported shrunken log2 fold change for "RRIRHRPPRLPRPRPRPKTAPRP" was 0.0497

Reported shrunken log2 fold change for "RRIRERPPRLPRPRPRPVIYPRP" was -0.248

Reported shrunken log2 fold change for "RRIRDRPPRLPRPRPRPLMHPRP" was 0.164

Reported shrunken log2 fold change for "RRIRTRPPRLPRPRPRPTVIPRP" was -0.17

Reported shrunken log2 fold change for "RRIRSRPPRLPRPRPRPVRPPRP" was 0.742

---

Recorded shrunken log2 fold change, one value per entry.
- Tested on: Escherichia coli TOP10
- procedure-text: shrunken log2 fold change of peptide-encoding DNA abundance (4.5 h post-induction vs induction); higher = less antimicrobial activity (less host growth inhibition)
- details: time post-induction: 4.5 h; library: site-saturation at positions 5, 18, 19, 20
Returns: the value as a bare number; no unit string appended.

Guide cases for shrunken log2 fold change, answers given:
>  <entry-sequence>
RRIRERPPRLPRPRPRPNQCPRP

>  <experimental-system>
Escherichia coli TOP10

>  <readout-type>
shrunken log2 fold change

>  <meas-value>
-0.00674

$$$$
>  <entry-sequence>
RRIRRRPPRLPRPRPRPFQPPRP

>  <experimental-system>
Escherichia coli TOP10

>  <readout-type>
shrunken log2 fold change

>  <meas-value>
0.331

$$$$
>  <entry-sequence>
RRIRYRPPRLPRPRPRPQCHPRP

>  <experimental-system>
Escherichia coli TOP10

>  <readout-type>
shrunken log2 fold change

>  <meas-value>
-0.198

$$$$
>  <entry-sequence>
RRIRSRPPRLPRPRPRPGLMPRP

>  <experimental-system>
Escherichia coli TOP10

>  <readout-type>
shrunken log2 fold change

>  <meas-value>
0.197

$$$$
>  <entry-sequence>
RRIRCRPPRLPRPRPRPYMSPRP

>  <experimental-system>
Escherichia coli TOP10

>  <readout-type>
shrunken log2 fold change

>  <meas-value>
-0.366

$$$$
>  <entry-sequence>
RRIRFRPPRLPRPRPRPKVMPRP

>  <experimental-system>
Escherichia coli TOP10

>  <readout-type>
shrunken log2 fold change

>  <meas-value>
-0.178

$$$$
>  <entry-sequence>
RRIRMRPPRLPRPRPRPDIPPRP

>  <experimental-system>
Escherichia coli TOP10

>  <readout-type>
shrunken log2 fold change

>  <meas-value>
-0.0804

$$$$
>  <entry-sequence>
RRIRRRPPRLPRPRPRPVQHPRP

>  <experimental-system>
Escherichia coli TOP10;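 also: peptides expressed intracellularly from a pBAD plasmid library in pooled LB shake-flask culture, induced with 0.3% L-arabinose, DNA abundance read by NGS, three biological replicates, DESeq2 with apeglm shrinkage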

>  <readout-type>
shrunken log2 fold change

>  <meas-value>
-0.0478

$$$$

Reported shrunken log2 fold change for "RRIRPRPPRLPRPRPRPVGAPRP" was 0.561

Reported shrunken log2 fold change for "RRIRLRPPRLPRPRPRPNNQPRP" was -0.287
